Measured PBM E-score of individual entries
# Study Target: Nrg2 (UniProt P38082)
# Sequence: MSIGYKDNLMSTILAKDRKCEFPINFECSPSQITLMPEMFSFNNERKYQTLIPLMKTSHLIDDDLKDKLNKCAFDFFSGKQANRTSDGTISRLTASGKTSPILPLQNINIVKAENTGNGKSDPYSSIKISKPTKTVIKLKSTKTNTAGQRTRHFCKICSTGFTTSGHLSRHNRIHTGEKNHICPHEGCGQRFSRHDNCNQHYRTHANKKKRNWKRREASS
# Protocol Details: PBM E-score (8-mer binding enrichment) (E-score (-0.5 to 0.5)); higher = stronger / more preferred TF binding
# Assay Conditions: protein concentration: 100 nM; construct: GST-full length
The full ranking holds about 33,000 sequences; the median of “E-score (-0.5 to 0.5)” is about -8e-05, and the highest 2% start at about 0.23. This excerpt belongs to a sample that is enriched for the highest values.
Quantity Name: PBM E-score

* GCTACCCA | -0.152
* CATTTTCC | 0.0879
* ATGCATCG | 0.0353
* ATGGTGTA | -0.0203
* CCTGGGTA | -0.159
* ACCTGCAG | -0.0488
* CCGCCCCG | 0.309
* CTCTCTTA | -0.0805
* ACCCCCAG | -0.291
* AGAAGTAC | -0.0369
* AACCCCAA | 0.147
* AACCCCAG | 0.237
* CCCTGGAG | 0.05
* CAGGTCAC | -0.271
* CAGCTGGA | 0.123
* GTATAGCA | 0.078
* GGGAGGAC | 0.0465
* AAAGGAGG | -0.252
* ATGCATCA | 0.229
* CCTCTCTA | -0.294
* GAGACGGC | -0.0458
* CCCTGCAA | 0.162
